STUDY TARGET: UniProtKB P31645
Sequence (P31645 whole entry): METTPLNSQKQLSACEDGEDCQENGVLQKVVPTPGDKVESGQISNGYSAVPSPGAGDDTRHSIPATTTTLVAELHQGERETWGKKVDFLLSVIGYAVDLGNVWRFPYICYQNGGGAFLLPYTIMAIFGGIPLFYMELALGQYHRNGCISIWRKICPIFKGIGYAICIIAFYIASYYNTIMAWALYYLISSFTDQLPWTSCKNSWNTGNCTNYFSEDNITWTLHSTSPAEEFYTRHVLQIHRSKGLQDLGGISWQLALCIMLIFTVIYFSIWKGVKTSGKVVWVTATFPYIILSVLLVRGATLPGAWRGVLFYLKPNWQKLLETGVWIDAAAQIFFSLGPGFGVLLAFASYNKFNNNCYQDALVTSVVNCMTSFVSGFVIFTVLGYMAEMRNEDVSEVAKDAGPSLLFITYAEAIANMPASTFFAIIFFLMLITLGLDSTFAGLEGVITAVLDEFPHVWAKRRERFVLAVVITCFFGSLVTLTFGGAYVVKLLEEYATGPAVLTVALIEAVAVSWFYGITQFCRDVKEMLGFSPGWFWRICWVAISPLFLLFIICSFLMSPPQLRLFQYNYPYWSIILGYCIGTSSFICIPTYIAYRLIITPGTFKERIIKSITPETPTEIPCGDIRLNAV
METHOD DESCRIPTION: cell-based
Assay type: cell-based
Assignment: determine reported pEC50 for the given compounds.
Scale explanation: pEC50 corresponds to minus log10 of a concentration expressed in moles per litre.

Give the observed pEC50 of OC1(c2ccc(Cl)cc2)c2ccccc2C2=NCCN21 (centres unmarked) for UniProtKB P31645. 5.54

Would you please give the reported pEC50 of CNCCC(Oc1ccccc1OC)c1ccccc1 (centres unmarked) with UniProtKB P31645? 5.87

Please indicate recorded pEC50 of NCCc1c[nH]c2c(O)c(O)c(O)cc12 [5,6,7 trihydroxytryptamine] measured with UniProtKB P31645. 4.84

Give measured pEC50 for NCCc1c[nH]c2ccccc12 (UniProtKB P31645). 6.70

Give pEC50 only, for NCCc1c[nH]c2c(O)cccc12 [7-hydroxytryptamine] , using UniProtKB P31645 data. 5.85

Origin of the recorded values: patent US7439039B2
